experiment: E. coli acrAB mutant growth effects, primary screen, E. coli filamentation inducers, strain DRC39, OD650, 48 h (AID 1179);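 also: screen aims at cell division blockers that make cells filament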; conditions: E. coli DRC39 delta-acrAB growth, higher = more signal, called active from +8 up or from −8 down

| MOLECULE | z-score |
| --- | --- |
| NCCCCCNC(=O)[C@@H]1C[C@@H]2C(=O)N3CCC[C@H]3C(=O)N2[C@@H]1c1ccc(O)cc1 | -0.107 |
| CCC(CC)C(O)C1C=CC2C(=O)N(c3ccccc3)C(=O)C2N1Nc1ccc([N+](=O)[O-])cc1 (stereo not drawn) | -0.162 |
| O=C1[C@@]23C=C(Br)[C@H](C[C@@H]2COC3)[C@@]12CO2 | -0.0396 |

----------
Consider the following compounds and their measured composite z-score readings.
test: COS7 lysate on small-molecule microarray, probe aHis, 635 nm (AID 1123); details: COS7 cell lysate, fluorescence, higher = more signal;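 also: z-score combines 667nm fluorescence intensity with signal-to-noise per printed compound spot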
PROPERTY_LABEL: composite z-score

| COMPOUND | QUANTITATIVE_RESULT |
| --- | --- |
| CCN(CC)c1ccc(N2CC=CC34O[C@@H]5C=CCCOC(=O)C5[C@H]3C(=O)N(CCO)[C@@H]4C2=O)cc1 (stereo partly drawn) | -0.724 |
| CCCCCCCCCCC(O)C1C=CC2C(=O)N(c3ccccc3)C(=O)C2N1Nc1ccccc1F (stereo not drawn) | 1.5 |
| CCOC(=O)C1=CCN(S(=O)(=O)c2ccc(C)cc2)C1c1ccccc1 (stereo not drawn) | 1.69 |
| CCc1cccc(NC(=O)O[C@H]2[C@H](OC(=O)Nc3ccccc3)[C@H](OC(=O)Nc3ccccc3)[C@@H](OC)O[C@@H]2CO)c1 | 2.57 |
| CCOC(=O)C1=CCC(c2ccco2)N(S(=O)(=O)c2ccc(C)cc2)C1 (stereo not drawn) | 1.48 |
| CCCCNC(=O)c1ccc(C#C[Si](C(C)C)(C(C)C)C(C)C)c(OC(C)=O)c1 | 0.1 |
| O=C(O)[C@@H]1C[C@@H]2C(=O)N3CCC[C@H]3C(=O)N2[C@@H]1c1cccc(OCCO)c1 | 4.04 |
| CC(C)N1CC=CC23O[C@@H]4/C=C\CCCOC(=O)C4[C@H]2C(=O)N(CCCCCCO)[C@@H]3C1=O (stereo partly drawn) | 1.28 |

----------
experiment: PSAC antagonists in infected red cells, primary screen, cell-based, P. falciparum Indochina, OD700, 2 h (AID 1155);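 also: lysis reports solute entry through the parasite surface anion channel PSAC; channel blockers reduce lysis of infected cells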; details: P. falciparum Indochina infected erythrocytes, osmotic lysis OD700; higher = more signal, called active from +8 up or from −8 down
PROPERTY_LABEL: z-score

| COMPOUND | PROPERTY_LABEL | QUANTITATIVE_RESULT |
| --- | --- | --- |
| O=C1OCCC/C=C\[C@H]2OC34C=CCN(c5ccc6ccccc6c5)C(=O)[C@H]3N(CCCO)C(=O)[C@@H]4C12 (some centres undefined) | z-score | 0.571 |
| CC(C)CNC(=O)[C@@]1(C)c2ccccc2C(=O)N(Cc2cc(C(F)(F)F)cc(C(F)(F)F)c2)[C@H]1c1ccc(CO)cc1 | z-score | 1.13 |
| COC(=O)[C@@]1(Cc2ccc(OC)cc2)[C@H]2c3cc(C(=O)N4CCCC4)n(Cc4ccc(OC(F)(F)F)cc4)c3C[C@H]2CN1C(=O)c1ccccc1 | z-score | 0.453 |
| COc1cc(NN2C(C(O)c3ccc(I)cc3)C=CC3C(=O)N(c4ccccc4)C(=O)C32)cc(OC)c1OC (centres undefined) | z-score | 0.477 |

----------
biological target: NADPH oxidase 5 (Homo sapiens) (UniProt Q96PH1); test: NOX5-dependent H2O2 signal modulators, primary screen, NOX inhibitor project, cell-based, HEK293-NOX5, Amplex Red fluorescence (AID 1161); conditions: HEK293-NOX5, ionomycin, 45 min, higher = more signal
Sequence (Q96PH1 whole entry, looked up): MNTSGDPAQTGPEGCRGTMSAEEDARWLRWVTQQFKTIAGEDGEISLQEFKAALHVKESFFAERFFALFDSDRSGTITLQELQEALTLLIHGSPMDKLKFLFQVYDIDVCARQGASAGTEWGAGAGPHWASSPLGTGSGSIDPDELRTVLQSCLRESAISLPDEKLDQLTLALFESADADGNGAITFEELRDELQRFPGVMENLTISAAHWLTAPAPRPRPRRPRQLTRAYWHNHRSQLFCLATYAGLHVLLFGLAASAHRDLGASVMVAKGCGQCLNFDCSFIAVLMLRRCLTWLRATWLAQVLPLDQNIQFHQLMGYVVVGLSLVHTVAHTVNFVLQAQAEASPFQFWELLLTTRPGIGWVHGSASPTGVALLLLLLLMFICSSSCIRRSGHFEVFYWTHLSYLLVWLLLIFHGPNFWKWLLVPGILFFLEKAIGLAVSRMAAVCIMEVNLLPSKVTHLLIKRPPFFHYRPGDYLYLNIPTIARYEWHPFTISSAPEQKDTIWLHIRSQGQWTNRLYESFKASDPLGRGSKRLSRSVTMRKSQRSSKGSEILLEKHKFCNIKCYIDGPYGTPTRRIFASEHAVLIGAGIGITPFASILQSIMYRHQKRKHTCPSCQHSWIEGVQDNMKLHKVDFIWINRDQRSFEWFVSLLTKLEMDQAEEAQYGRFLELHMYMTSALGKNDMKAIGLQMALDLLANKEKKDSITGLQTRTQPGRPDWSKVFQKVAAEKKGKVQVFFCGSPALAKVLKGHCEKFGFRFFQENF
Consider the following compounds and their measured z-score readings.
PROPERTY_LABEL: z-score

| COMPOUND | TARGET_OF_ASSAY | PROPERTY_LABEL | QUANTITATIVE_RESULT |
| --- | --- | --- | --- |
| CC(C)C(CO)N1C(=O)[C@@H]2[C@H]3C(=O)OCC=C[C@H]3OC23C=CCN(C(C)(C)C)C(=O)[C@@H]13 (stereo partly specified) | NADPH oxidase 5 (Homo sapiens) (UniProt Q96PH1) | z-score | 1.92 |
| O=C1OCC=C[C@H]2OC34C=CCN(c5ccc6ccccc6c5)C(=O)[C@H]3N(CCCCCO)C(=O)[C@@H]4[C@@H]12 (stereo partly specified) | NADPH oxidase 5 (Homo sapiens) (UniProt Q96PH1) | z-score | 2.93 |
| C[C@]1(C(=O)O)c2ccccc2C(=O)N(Cc2ccc(OC(F)(F)F)cc2)[C@H]1c1ccc(CO)cc1 | NADPH oxidase 5 (Homo sapiens) (UniProt Q96PH1) | z-score | -0.52 |
| C=C(COC)/C(=C/C[C@@H](OC(C)=O)c1ccc(CO)o1)c1cc(C(=O)OC)ccc1OC | NADPH oxidase 5 (Homo sapiens) (UniProt Q96PH1) | z-score | 0.13 |
| CCOC(=O)C=Cc1cc(F)ccc1O | NADPH oxidase 5 (Homo sapiens) (UniProt Q96PH1) | z-score | -4.14 |
| COC(=O)C1=CC(CCCO)=CC(C)N(Cc2cccc(OC(F)(F)F)c2)C=C1C(=O)OC (stereo unspecified) | NADPH oxidase 5 (Homo sapiens) (UniProt Q96PH1) | z-score | 0.859 |

----------
test: small-molecule microarray binders of probe aLefty2, primary screen, biochemical, biotinylated probe, 635/667 nm fluorescence (AID 1094); conditions: higher = more signal;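 also: score merges spot fluorescence near 667 nm with spot signal-to-noise ratio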
Threshold check on composite z-score: at or above -0.07 gives TRUE, strictly below gives FALSE.

| MOLECULE | DISCRETE_LABEL |
| --- | --- |
| CC1CC/C=C\[C@H]2OC34C=CCN(CCN5CCOCC5)C(=O)[C@H]3N(C(C)CO)C(=O)[C@@H]4C2C(=O)O1 (stereo partly drawn) | FALSE |
| COC(=O)C1N=C(c2ccc(OCCCO)cc2)N(c2ccccc2)O1 (stereo not drawn) | TRUE |
| Nc1cc(Br)ccc1C(=O)O | TRUE |
| COc1ccc(C(=O)Nc2cccc(CN3C(=O)[C@]4(O[C@H](CCn5cc([C@H](O)c6ccccc6)nn5)[C@@H]([Si](C)(C)c5ccc(OC)cc5)[C@@H]4C)c4ccccc43)c2)cc1 | TRUE |
| C=CC1c2cc(O)c(OC)cc2CCN1Cc1ccc([N+](=O)[O-])o1 (stereo not drawn) | TRUE |
| [N-]=[N+]=Nc1ccccc1C[C@@]1(C(=O)O)N=C(c2ccc(OCCCO)cc2)O[C@@H]1c1ccccc1N=[N+]=[N-] | TRUE |
| C=C/C=C/[C@@H]1C(=C)CN([C@@H](Cc2ccccc2)C(=O)OC)[C@H]1[C@@H](O)Cc1ccccc1 | FALSE |
| C=C(C(=O)CC[C@H](OC(=O)c1ccccc1-c1ccccc1C(=O)O)c1ccccc1OCCO)C(C)C | FALSE |

----------
assay: fission yeast growth modulation, primary screen, strain 972, OD600, 24 h, no modulator (AID 1090);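 also: basal condition with compound alone and no growth modifier present; test concentration not given here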; conditions: S. pombe 972 growth, higher = more signal, called active from +8 up or from −8 down
Consider the following compounds and their measured z-score readings.
PROPERTY_LABEL: z-score

| COMPOUND | QUANTITATIVE_RESULT |
| --- | --- |
| O=c1cccc(-c2ccco2)o1 | -0.311 |
| CN1C(=O)C2C=CC(C(O)c3ccc(I)cc3)N(Nc3ccccc3)C2C1=O (configuration not stated) | -0.504 |
| CO[C@H]1O[C@H](CO)[C@@H](OC(=O)CCc2ccccc2)[C@H](OC(=O)c2cc3ccccc3[nH]2)[C@H]1OC(=O)c1cc2ccccc2[nH]1 | -0.0932 |
| COCC1C2CC[C@H]3C(OCc4ccc(OC)cc4)OC[C@]4(C)[C@H]3C2=C(CN4C(=O)OC(C)(C)C)[C@H](C)C1COC (some centres not stated) | -1.18 |
| COc1ccc(C(O)C2C=CC3C(=O)N(c4ccccc4)C(=O)C3N2Nc2ccccc2)cc1 (configuration not stated) | -0.24 |
| C=C(C(=O)CC[C@H](OC(=O)c1ccccc1-c1ccccc1C(=O)O)c1ccccc1OCCO)C(C)C | -0.788 |
| COCCOC(=O)N1C(=O)[C@@]2(c3cc(C#CCC(C(=O)OC)C(=O)OC)ccc31)[C@H](C(=O)NC[C@H](O)c1ccccc1)[C@H]1C(=O)O[C@H](c3ccccc3)[C@H](c3ccccc3)N1[C@@H]2c1ccc(OCCO)cc1 | 2.7 |

----------
assay: E. coli growth modulation, two-sided OD650, primary screen, E. coli filamentation project, strain DRC41, 24 h (AID 1093); conditions: OD650, 24 h, higher = more signal, called active from +8 up or from −8 down;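 also: MC1000 strain lacking acrAB efflux and sulA so SOS filamentation is blocked; test concentration not given here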
Consider the following compounds and their measured z-score readings.

| COMPOUND | z-score |
| --- | --- |
| CCCCCN1CC=CC23O[C@@H]4/C=C\CCC(C)OC(=O)C4[C@H]2C(=O)N(CCCCCCO)[C@@H]3C1=O (stereo partly drawn) | 1.24 |
| COCC1C2CC[C@H]3C(OCc4ccc(OC)cc4)OC[C@]4(C)[C@H]3C2=C(CN4C(=O)OC(C)(C)C)[C@H](C)C1COC (stereo partly drawn) | -1.22 |
| CN(C)C(=O)[C@@]1(Cc2ccccc2N=[N+]=[N-])N=C(c2ccc(OCCCO)cc2)O[C@H]1c1ccccc1 | 0.1 |
| C=C(/C(=C/C[C@@H](OC(C)=O)c1ccc(CO)o1)c1cc(C(=O)OC)ccc1OC)C(C)C | -0.0453 |
| O=c1cccc(-c2ccco2)o1 | -0.696 |
| C[C@@]12COC[C@]13C=C(Br)[C@H](C2)[C@@]1(CO1)C3=O | -0.768 |
| O=C1C2C=CC(C(O)C=Cc3ccc([N+](=O)[O-])cc3)N(Nc3ccccc3)C2C(=O)N1c1ccccc1 (stereo not drawn) | -0.608 |
| COCCOC(=O)N1C(=O)[C@@]2(c3cc(C#CCC(C(=O)OC)C(=O)OC)ccc31)[C@H](C(=O)NC[C@H](O)c1ccccc1)[C@H]1C(=O)O[C@H](c3ccccc3)[C@H](c3ccccc3)N1[C@@H]2c1ccc(OCCO)cc1 | 0.6 |
